Please go through the items and note down their SPOT intensity.
Target: T1, Fus1, P11710
T1 sequence (P11710 432-512, looked up): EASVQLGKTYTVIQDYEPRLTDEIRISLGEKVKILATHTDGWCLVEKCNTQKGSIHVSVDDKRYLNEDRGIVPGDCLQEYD
Experiment: SPOT array
Conditions: median of control spots 1200
One number for each entry.

Example entries begin here.
NPTKSPPPPPSPSTM :: 1
LLRRTIPKRPFYHVL :: 14
DKKTKPTPPPKPSHL :: 0
SSTPTTPERPKRKSG :: 0
LKQRFFLMFPKSIIW :: 38
ISNFVPPNLPMRRFK :: 0
WTQRRGPLVVYAEDN :: 2
RRSKSLPITPKSIFN :: 26
PSPSSSPPPIPKTAN :: 0
VAPPPLPNRQLPNLD :: 0

I would be grateful if you could provide SPOT intensity for each of the following entries.
1. KRRTSLFPWLHKPGI
2. KTRLRPAFIQQLWSS
3. TPTSGPPLLPPRNTM
4. RKLRTVPGVPLIHLT
5. FYHRPAPKPPVTKKV

A:
[31, 7, 1, 2, 0]

I would be grateful if you could provide SPOT intensity for each of the following entries.
1. LLLLFVPDSPYDPAI
2. SAPDIPPRSPNRNAH
3. FVLRYYILIPHEQWD
4. RRGPAPPPPPRASRP

A:
1. 1
2. 0
3. 42
4. 0

Q: Which SPOT intensity is reported for this binder? `IKKRNKIRLPSGSPE`
A: 52
